All figures here come from PubChem BioAssay (NCI).

Tested on: MALME-3M melanoma
Test: NCI-60 one-dose screen, 48 h
Conditions: 10 µM unless noted
This is part of a sample that, as a whole, favours compounds with a hit. Of some 83,000 tested, about 20% had one in any assay. Calls of active or inactive are those of the source. Rule for the calls: active = growth percent below 10; inactive = the rest.
The reply should name one outcome from YES = active, NO = inactive

Per the assay record, what outcome was assigned to O=C1NC2(Nc3ccccc31)C(=O)Nc1c(Cl)cc(Cl)cc12 (stereo not given) ? NO

Per the assay record, what outcome was assigned to `COc1ccc(Nc2ncc(Br)c(NCCCNC(=O)c3cccs3)n2)cc1` ? NO

Per the assay record, what outcome was assigned to O=C(OC(CO)C(=O)NC12CC3CC(CC(C3)C1)C2)c1ccc(Cl)cc1 (stereo not given) ? NO

Per the assay record, what outcome was assigned to `O=C1/C(=C/c2ccccc2Br)COc2ccc(O)cc21` ? NO

Per the assay record, what outcome was assigned to `CN(C)c1ccc(-c2c(C#N)c(N)nn2C(=O)c2ccc(NC(=O)c3ccccn3)cc2)cc1` ? NO

Per the assay record, what outcome was assigned to `O=C1/C(=C/c2ccccc2O)CC/C1=C\c1ccccc1O` ? NO

Per the assay record, what outcome was assigned to CCCCCCC12CCC(=O)N1CCc1cncn12 (stereo not given) ? NO

Per the assay record, what outcome was assigned to `Cc1ccc2c(Cn3cc(CSc4nc5ccccc5o4)nn3)cc(=O)oc2c1` ? NO

Per the assay record, what outcome was assigned to `Cc1ccc(-c2nc([P+](c3ccccc3)(c3ccccc3)c3ccccc3)c(S(=O)(=O)c3ccc(C)cc3)o2)cc1` ? YES

Per the assay record, what outcome was assigned to `NS(=O)(=O)c1ccc(N=Nc2c(O)n(Cc3ccccc3)c3ccc(Cl)cc23)cc1` ? NO

###

Test system: OVCAR-4 ovarian
Experiment: NCI-60 one-dose screen, 48 h (100 = growth as untreated, 0 = no growth, -100 = all killed)
Details: 10 µM unless noted
This is part of a sample that, as a whole, favours compounds with a hit. Of some 83,000 tested, about 20% had one in any assay.
Metric Name: growth (%)
A number alone suffices; assume %.

Consider `O=C(N/N=C/c1c(Cl)cccc1Cl)c1cccnc1Nc1cccc(C(F)(F)F)c1` . Its measured growth is 25.1

Consider `CC(C)c1ccc(-n2c(=S)[nH]c3sc4cc(O)ccc4c3c2=O)cc1` . Its measured growth is 111

Consider `C=CCc1c(O)c(C(=O)/C=C/c2ccccc2)c(OC)c2ccoc12` . Its measured growth is 49.1

Consider `COC(=O)[C@@H](CCCCNC(=O)[C@]12CCC(C)(C)C[C@@H]1C1=CC[C@@H]3[C@@]4(C)C/C(=C/c5ccco5)C(=O)C(C)(C)[C@@H]4CC[C@@]3(C)[C@]1(C)CC2)NC(=O)[C@]12CCC(C)(C)C[C@@H]1C1=CC[C@@H]3[C@@]4(C)C/C(=C/c5ccco5)C(=O)C(C)(C)[C@@H]4CC[C@@]3(C)[C@]1(C)CC2` . Its measured growth is 127

Consider `O=C(Nc1cccc2ccccc12)NC1CC1` . Its measured growth is 102

Consider COc1cc(C2CC(c3ccc(Nc4nc(Nc5ccc(Cl)cc5)nc(Nc5ccc(Cl)cc5)n4)cc3)=NN2C(C)=O)cc(OC)c1OC (stereo not drawn) . Its measured growth is 97.3

Consider `O=c1c2ccccc2n2cnc3ccc(Cl)c1c32` . Its measured growth is 82.6

Consider `Nc1nc2ccc(-c3nc4ccc5[nH]ncc5c4c4c3CCCC4)cc2s1` . Its measured growth is 107
